The following compounds each carry a recorded pIC50 for cPLA2 (Homo sapiens, UniProt P47712).
# pIC50 is unitless: minus log10 of the molar concentration; print number only

Task: Please provide the recorded pIC50 for O=C(O)c1ccc(CCCc2c(CCNS(=O)(=O)c3cc(Cl)c(F)cc3F)n(C(c3ccccc3)c3ccccc3)c3ccc(Cl)cc23)cc1 [Example 166] , tested on cPLA2 (Homo sapiens, UniProt P47712).
Sequence (P47712 whole entry, species assumed): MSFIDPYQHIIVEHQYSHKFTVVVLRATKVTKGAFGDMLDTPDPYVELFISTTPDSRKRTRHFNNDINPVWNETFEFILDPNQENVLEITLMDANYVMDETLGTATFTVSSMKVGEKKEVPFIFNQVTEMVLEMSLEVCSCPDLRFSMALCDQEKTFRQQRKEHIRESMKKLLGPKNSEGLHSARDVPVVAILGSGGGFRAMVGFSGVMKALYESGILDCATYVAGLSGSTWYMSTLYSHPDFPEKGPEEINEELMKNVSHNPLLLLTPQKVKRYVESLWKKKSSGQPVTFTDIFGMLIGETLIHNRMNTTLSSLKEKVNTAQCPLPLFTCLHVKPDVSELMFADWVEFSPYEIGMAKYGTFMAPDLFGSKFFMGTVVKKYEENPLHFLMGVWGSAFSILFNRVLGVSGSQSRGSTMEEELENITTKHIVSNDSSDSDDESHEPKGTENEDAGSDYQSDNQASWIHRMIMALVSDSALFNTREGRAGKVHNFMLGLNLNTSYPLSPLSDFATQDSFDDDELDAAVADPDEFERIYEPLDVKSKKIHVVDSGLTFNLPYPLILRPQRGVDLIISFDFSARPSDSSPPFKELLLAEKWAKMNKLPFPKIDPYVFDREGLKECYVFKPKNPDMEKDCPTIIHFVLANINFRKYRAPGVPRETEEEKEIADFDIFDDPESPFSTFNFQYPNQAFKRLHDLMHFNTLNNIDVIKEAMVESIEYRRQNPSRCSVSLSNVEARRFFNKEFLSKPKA
Output: 6.40

Task: Please provide the recorded pIC50 for O=C(O)c1ccc(OCCc2c(CCNS(=O)(=O)c3c(F)cccc3F)n(C(c3ccccc3)c3ccccc3)c3ccc(Cl)cc23)cc1 [Example 225] , tested on cPLA2 (Homo sapiens, UniProt P47712).
Output: 6.40

Task: Please provide the recorded pIC50 for Cc1cccc(C)c1S(=O)(=O)NCCc1c(CCOc2ccc(C(=O)O)cc2)c2cc(Cl)ccc2n1C(c1ccccc1)c1ccccc1 [Example 271] , tested on cPLA2 (Homo sapiens, UniProt P47712).
Output: 6.82

Task: Please provide the recorded pIC50 for O=C(O)c1ccc(OCCc2c(CCNS(=O)(=O)CCN3CCC(O)CC3)n(C(c3ccccc3)c3ccccc3)c3ccc(Cl)cc23)cc1 [Example 123] , tested on cPLA2 (Homo sapiens, UniProt P47712).
Output: 5.82

Task: Please provide the recorded pIC50 for O=C(O)c1ccc(CCCc2c(CCNS(=O)(=O)c3c(F)cc(F)cc3F)n(C(c3ccccc3)c3ccccc3)c3ccc(Cl)cc23)cc1 [Example 199] , tested on cPLA2 (Homo sapiens, UniProt P47712).
Output: 6.35

Task: Please provide the recorded pIC50 for Cc1nn(C)c(C)c1S(=O)(=O)NCCc1c(CCCc2ccc(C(=O)O)cc2)c2cc(Cl)ccc2n1C(c1ccccc1)c1ccccc1 [Example 212] , tested on cPLA2 (Homo sapiens, UniProt P47712).
Output: 6.74

Task: Please provide the recorded pIC50 for CC(C)(C)c1ccccc1S(=O)(=O)NCCc1c(CCOc2ccc(C(=O)O)cc2)c2cc(Cl)ccc2n1C(c1ccccc1)c1ccccc1 [Example 237] , tested on cPLA2 (Homo sapiens, UniProt P47712).
Output: 6.70

Task: Please provide the recorded pIC50 for COc1cc(C)ccc1S(=O)(=O)NCCc1c(CCOc2ccc(C(=O)O)cc2)c2cc(Cl)ccc2n1C(c1ccccc1)c1ccccc1 [Example 171] , tested on cPLA2 (Homo sapiens, UniProt P47712).
Output: 6.44

Task: Please provide the recorded pIC50 for O=C(O)c1ccc(OCCc2c(CCNS(=O)(=O)CSc3ccc(Cl)c(Cl)c3)n(C(c3ccccc3)c3ccccc3)c3ccc(Cl)cc23)cc1 [Example 220] , tested on cPLA2 (Homo sapiens, UniProt P47712).
Output: 6.40

Task: Please provide the recorded pIC50 for O=C(O)c1ccc(CCCc2c(CCNS(=O)(=O)c3c(F)cccc3F)n(C(c3ccccc3)c3ccccc3)c3ccc(Cl)cc23)cc1 [Example 224] , tested on cPLA2 (Homo sapiens, UniProt P47712).
Output: 6.60

Task: Please provide the recorded pIC50 for COc1ccccc1S(=O)(=O)NCCc1c(CCOc2ccc(C(=O)O)cc2)c2cc(Cl)ccc2n1C(c1ccccc1)c1ccccc1 [Example 235] , tested on cPLA2 (Homo sapiens, UniProt P47712).
Output: 6.74

Task: Please provide the recorded pIC50 for O=C(O)c1ccc(OCCc2c(CCNS(=O)(=O)Cc3ccccc3Cl)n(C(c3ccccc3)c3ccccc3)c3ccc(Cl)cc23)cc1F [Example 297] , tested on cPLA2 (Homo sapiens, UniProt P47712).
Output: 6.52
